- Assay summary: Chemical stability (H2O, pH 7.4)
- Format: physicochemical
- Condition context: water (aqueous solution), pH 7.4; read-out: Chemical stability t1/2 pH 7.4 (converted)
Measured attribute: half-life (min)
I only need the number, in min, no unit after it.

Consider the worked cases shown below.
O=C(/C=C(O)/C=C/c1cccc(O)c1)/C=C/c1cccc(O)c1 [Compound 19] | 66.2
O=C(/C=C(O)/C=C/c1ccc(O)cc1)/C=C/c1ccc(O)cc1 [Compound 1, reference compound] | 14
COc1cc(/C=C/C(=O)/C=C(O)/C=C/c2ccc(O)c(OC)c2)ccc1O [Compound 2, reference compound] | 15.9

// next entry
Problem: For the compound O=C1/C(=C(O)/C=C/c2ccc(O)cc2)CCC/C1=C\c1ccc(O)cc1 [Compound 6] , give its measured half-life value.
Result: 436

----------
- Assay summary: Chemical stability (H2O, pH 7.4)
- Assay type: physicochemical
- Condition context: water (aqueous solution); pH 7.4; value given in h; read-out: Chemical stability t1/2 pH 7.4 (converted)
Each entry below lists one item and its recorded half-life value.
I only need the number, in h, no unit after it.

Consider the worked cases shown below.
COc1cc(/C=C/C(=O)/C=C(O)/C=C/c2ccc(OC(=O)C(N)C(C)C)c(OC)c2)ccc1OC(=O)C(N)C(C)C (stereo not drawn) [Compound 35] | 2.3
COc1cc(N(C)C)ccc1/C=C/C(=O)/C=C(O)/C=C/c1ccc(N(C)C)cc1OC [Compound 3] | 25.5

// next entry
Problem: For the compound CC(C)C(N)C(=O)Oc1ccc(/C=C/C(=O)/C=C(O)/C=C/c2ccc(OC(=O)C(N)C(C)C)cc2)cc1 (stereo not drawn) [Compound 33] , give its measured half-life value.
Result: 1

----------
- Assay summary: Metabolic stability in human S9 fraction
- Format: in vitro ADME
- Condition context: read-out: Half life, t1/2 S9
Measured attribute: log10 half-life (log10 of the value in min)
Heads up, the numbers here are log10 of half-life in min units.

Consider the worked cases shown below.
COc1cc(O)ccc1/C=C/C(=O)/C=C(O)/C=C/c1ccc(O)cc1OC [Compound 22] | 0.38
COc1cc(N(C)C)ccc1/C=C/C(=O)/C=C(O)/C=C/c1ccc(N(C)C)cc1OC [Compound 3] | 1.60
COc1cc(/C=C/C(=O)/C=C(O)/C=C/c2ccc(OC(=O)C(N)C(C)C)c(OC)c2)ccc1OC(=O)C(N)C(C)C (centres unmarked) [Compound 35] | 0.95
CC(C)C(N)C(=O)Oc1ccc(/C=C/C(=O)/C=C(O)/C=C/c2ccc(OC(=O)C(N)C(C)C)cc2)cc1 (centres unmarked) [Compound 33] | 0.77

Problem: For the compound CN(C)c1ccc(/C=C/C(O)=C2\CCC/C(=C\c3ccc(N(C)C)cc3)C2=O)cc1 [Compound 10] , give its measured log10 half-life value.
Result: 2.49

----------
Each entry below lists one item and its recorded half-life value.
- Assay summary: Metabolic stability in human liver microsomes
- Format: in vitro ADME
- Condition context: human, read-out: Half life, t1/2 HLM
I only need the number, in min, no unit after it.

Consider the worked cases shown below.
CN(C)c1ccc(/C=C/C(=O)/C=C(O)/C=C/c2ccc(N(C)C)cc2)cc1 | 41.5
COc1ccc(F)cc1/C=C/C(=O)/C=C(O)/C=C/c1cc(F)ccc1OC | 59.2
CN(C)c1ccc(/C=C/C(O)=C2\CCC/C(=C\c3ccc(N(C)C)cc3)C2=O)cc1 | 127

// next entry
Problem: For the compound O=C(/C=C(O)/C=C/c1ccc(O)cc1)/C=C/c1ccc(O)cc1 [Compound 1, reference compound] , give its measured half-life value.
Result: 16.4
